Cited source: PubChem BioAssay (NCI)

tested on: EKVX NSCLC; assay: NCI-60 one-dose screen, 48 h (100 = growth as untreated, 0 = no growth, -100 = all killed); conditions: 10 µM unless noted
This is part of a sample that, as a whole, favours compounds with a hit. Of some 83,000 tested, about 20% had one in any assay. Active and inactive are the calls of the source. Rule for the calls: active = growth percent below 10; inactive = the rest.
Property Label: growth

{"Mol": "O[C@H]1CO[C@H]2[C@@H]1OC[C@@H]2Oc1ccc(Nc2nc(Nc3ccc(F)c(Cl)c3)ncc2F)cc1Cl", "growth": "92.2% (inactive)"}
{"Mol": "CCCCS(=O)(=O)Oc1ccc(-c2nc(C)c(C(=O)OCC)s2)cc1C=O", "growth": "92.1% (inactive)"}
{"Mol": "NS(=O)(=O)c1cnccc1-n1ccc(=O)c(S(N)(=O)=O)c1", "growth": "90.3% (inactive)"}
{"Mol": "CC(=O)Nc1nccs1", "growth": "92.2% (inactive)"}

Then this compound:
// query growth lookup needed for "COc1ccccc1C(=O)NC(=S)Nc1ccc(-c2nc3ccccc3[nH]2)cc1" , thanks.
// result 91.1% (inactive)

====

test system: MDA-MB-435 melanoma; experiment: NCI-60 one-dose screen, 48 h (100 = growth as untreated, 0 = no growth, -100 = all killed); settings: 10 µM unless noted
Compounds without any hit were thinned out: in the full panel of roughly 83,000, 20% have a hit. Activity calls are given as the source filed them. The calls were made as follows: active = growth percent below 10; inactive = the rest.
Property Label: growth

{"Molecule": "COc1ccc(-c2cc(-c3ccc(Nc4nc(Nc5ccccc5)nc(Nc5ccc(Cl)cc5)n4)cc3)nc(N)n2)cc1", "Result": "66.6% (inactive)"}
{"Molecule": "Cc1nn(-c2ccccc2)c2c1C(c1ccc([N+](=O)[O-])cc1)C(C#N)=C(N)O2 (stereo not given)", "Result": "121% (inactive)"}
{"Molecule": "Nc1ccc(-c2cc3c(Nc4ccc(OCc5cccc(F)c5)c(Cl)c4)ncnc3s2)cc1", "Result": "43.8% (inactive)"}
{"Molecule": "COc1ccccc1NC(=O)Nc1ccc(-c2nc3ccccc3o2)cc1", "Result": "104% (inactive)"}
{"Molecule": "COc1ccc(/C=C2\\COc3ccc(O)cc3C2=O)cc1OC", "Result": "24.4% (inactive)"}

Can you give me growth for all of these, one by one?
1. CN(C)CCn1cc(-c2ccc3c(Nc4ccc(CC(=O)Nc5cccc(F)c5)cc4)ncnc3c2)cn1
2. N=c1ccn2c(n1)OC1C(O)C(CO)OC12 (stereo not given)

// result
1: -71.7% [30 µM] (active); 2: 46.8% (inactive)

Can you give me growth for all of these, one by one?
1. COc1cccc(CCC2CCCN(c3cc(C)nc(N)n3)C2)c1 (stereo not given)
2. COc1ccc(OC)c(C(=O)Nc2cccc(-c3cc(=O)c4ccccc4o3)c2)c1
3. O=C(Oc1ccc([N+](=O)[O-])cc1)c1ccc(CBr)cc1

// result
0.575% (active)
96.2% (inactive)
98.8% (inactive)

====

test system: HOP-92 NSCLC; test: NCI-60 one-dose screen, 48 h; conditions: 10 µM unless noted
This is part of a sample that, as a whole, favours compounds with a hit. Of some 83,000 tested, about 20% had one in any assay. Calls of active or inactive are those of the source. Rule for the calls: active = growth percent below 10; inactive = the rest.
Hello, when you answer, please use one of the following outcomes: 1 (yes) for active, 0 (no) for inactive

Past entries and their recorded results:
{"Molecule": "CC1(C)N=C(N)N=C(N)N1c1cccc(CN)c1", "Assigned Label": "0 (no)"}
{"Molecule": "O=C(O)CC1Sc2ccccc2NC1=O (stereo unspecified)", "Assigned Label": "0 (no)"}
{"Molecule": "CCOC(=O)C1=C(C)NC(SCc2nnc(-c3ccc(Cl)cc3)o2)=NC1c1ccc(Cl)cc1Cl (stereo unspecified)", "Assigned Label": "0 (no)"}
{"Molecule": "COc1cc2c(=O)n(CCCn3ccnc3)c3c4cc5c(cc4ccc3c2cc1OC)OCO5", "Assigned Label": "1 (yes)"}
{"Molecule": "COc1cc(-c2ccc(N=Nc3c(O)c(C(=O)Nc4ccccc4OC)cc4ccccc34)c(OC)c2)ccc1N=Nc1c(O)c(C(=O)Nc2ccccc2OC)cc2ccccc12", "Assigned Label": "0 (no)"}
{"Molecule": "O=S(=O)(NCCNc1cc(-c2c(-c3cccc(O)c3)nc3sccn23)ccn1)c1ccc(Cl)cc1", "Assigned Label": "0 (no)"}

We now examine a further molecule.
// query Would you mind telling me which call this test gave "COC(=O)c1ccc2oc(NC(=O)c3ccc(N4CCOCC4)c([N+](=O)[O-])c3)nc2c1" ?
// result 0 (no)

====

tested on: SW-620 colon; test: NCI-60 one-dose screen, 48 h; details: 10 µM unless noted
Compounds without any hit were thinned out: in the full panel of roughly 83,000, 20% have a hit. Calls of active or inactive are those of the source. How the source made its calls: active means growth percent below 10; inactive means the rest.
Hello, when you answer, please use one of the following outcomes: 1 = active, 0 = inactive

Past entries and their recorded results:
{"Compound": "O=C1CSC(c2ccccc2Cl)N1c1nnc(Cn2cnnc2)o1 (configuration not stated)", "Assigned Label": 0}
{"Compound": "COc1ccc(-c2nc3ncccn3c2/C=C/C(=O)c2cc(OC)c(OC)c(OC)c2)cc1", "Assigned Label": 1}
{"Compound": "NS(=O)(=O)c1cn(-c2ncnc3nc[nH]c23)ccc1=O", "Assigned Label": 0}

// query Would you mind telling me which call this test gave "O=C(O)c1ccccc1C(=O)Nc1ccc(Cl)cc1" ?
// result 0

// query Now consider "C=C1C(=O)O[C@H]2[C@H]1CC/C(C(=O)NCCCCCCCCNC(=O)/C1=C/CC[C@@]3(C)O[C@H]3[C@H]3OC(=O)C(=C)[C@@H]3CC1)=C\CC[C@@]1(C)O[C@@H]21" .
// result 0

// query Now consider "CN1CCN(c2ccc(Nc3ncc(Cl)c(NC[C@@H]4CCCO4)n3)cc2)CC1" .
// result 1

// query Now consider "O=C1/C(=C/c2ccc([N+](=O)[O-])cc2)COc2ccc(O)c(O)c21" .
// result 1

// query Now consider "COc1ccc(-c2cncnc2N)cc1OC" .
// result 0

// query Now consider "O=C(CCCCCCCn1cc(-c2cccnc2)nn1)Nc1ccccc1-c1ccccc1" .
// result 0

// query Now consider "CNC1(C#N)CCN(Cc2ccccc2)CC1" .
// result 0

// query Now consider "CCCCS(=O)(=O)Oc1ccc(-c2nc(C)c(C(=O)OCC)s2)cc1C=O" .
// result 0

// query Now consider "CCOC(=O)c1sc2ccc(NCc3nc[nH]c3C)cc2c1NC(=O)c1cc(OC)c(OC)c(OC)c1" .
// result 0

====

Test system: SF-539 CNS
Assay: NCI-60 one-dose screen, 48 h (100 = growth as untreated, 0 = no growth, -100 = all killed)
Conditions: 10 µM unless noted
Description: Cells are grown in 96 well plates and exposed to the test compound for 48 hours. Compounds are tested at a single concentration, which is 10^-5 M for most compounds. The reported endpoint is percent growth (GI% or GIPRCNT), where numbers from 0 - 100% represent growth inhibition, and numbers from -100% - 0 represent cell death. For example, a value of 40 represents 60% growth inhibition. A value of 0 means no net growth occurred over the course of the experiment. […]
The panel holds about 83,000 compounds, 20% with a hit somewhere; the sample as a whole holds those more often.
Property Label: growth (%)
Numbers only, in %.

{"Molecule": "Cc1nc(Nc2ccc(S(=O)(=O)Nc3cc(C)on3)cc2)c2ccccc2n1", "growth (%)": 97.6}
{"Molecule": "C=CCO[C@H]1CO[C@H]2[C@@H]1OC[C@@H]2Oc1ccc(Nc2ccnc(Nc3ccc(O[C@H]4CO[C@H]5[C@@H]4OC[C@@H]5OCC=C)c(Cl)c3)n2)cc1Cl", "growth (%)": -87.5}
{"Molecule": "CCCCCCN(CCCCCC)CC(O)c1cccc2ccc(Cl)cc12 (configuration not stated)", "growth (%)": 65.5}
{"Molecule": "Cc1nn(Cc2ccccc2)cc1C(=O)Nc1sc2c(c1C(N)=O)CCC(=O)C2", "growth (%)": 9.16}
{"Molecule": "Cc1c(C(N)=O)sc2nc(C)n(/N=c3\\scc(-c4ccccc4)n3Cc3ccccc3)c(=O)c12", "growth (%)": 22.2}
{"Molecule": "CCOC(=O)c1c(C)[nH]c(C(=O)CCC(=O)OC)c1C", "growth (%)": 100}

// query growth lookup needed for "CCn1c(Sc2nnc(NC(=O)CCN3CCCC3)s2)nc2c1c(=O)n(C)c(=O)n2C" , thanks.
// result 98.4

====

test system: KM12 colon; experiment: NCI-60 one-dose screen, 48 h; details: 10 µM unless noted
The panel holds about 83,000 compounds, 20% with a hit somewhere; the sample as a whole holds those more often. Calls of active or inactive are those of the source. The calls were made as follows: active = growth percent below 10; inactive = the rest.
Hello, when you answer, please use one of the following outcomes: 1.0 for active, 0.0 for inactive

{"Compound": "Cc1cc(NS(=O)(=O)c2ccccc2)c(OS(=O)(=O)c2ccccc2)cc1C", "Assigned Label": 0.0}

// query Would you mind telling me which call this test gave "C=CC(=O)N[C@@H](Cc1ccc(-c2cc(Cl)cc(Cl)c2)cc1)[C@@H](O)[C@H](O)C(=O)O" ?
// result 0.0
